# run description: Solubility at pH 3.1
# Format: physicochemical
# study conditions: buffer
recorded metric: solubility

- CO/C(C)=C1/NC(=O)[C@H]([C@@H](C)O)NC(=O)c2csc(n2)-c2cc(O)c(-c3nc(C(=O)N[C@@H](C)C(=O)N[C@@H]4[C@@H](O)[C@H](O)[C@@H](CO)O[C@H]4O)cs3)nc2-c2csc(n2)[C@@H]2COC(=O)c3c4c5c(cccc5n3O)COC(=O)[C@@H](O[C@H]3C[C@](C)(O)[C@H](N(C)C)[C@H](C)O3)[C@@H](OC4)[C@H](NC(=O)c3csc1n3)c1nc(cs1)C(=O)N2: > 2200 µg/mL
- CO/C(C)=C1/NC(=O)[C@H]([C@@H](C)O)NC(=O)c2csc(n2)-c2cc(O)c(-c3nc(C(=O)N[C@@H](C)C(=O)NC[C@H](O)CO)cs3)nc2-c2csc(n2)[C@@H]2COC(=O)c3c4c5c(cccc5n3O)COC(=O)[C@@H](O[C@H]3C[C@](C)(O)[C@H](N(C)C)[C@H](C)O3)[C@@H](OC4)[C@H](NC(=O)c3csc1n3)c1nc(cs1)C(=O)N2: > 2200 µg/mL
- CO/C(C)=C1/NC(=O)[C@H]([C@@H](C)O)NC(=O)c2csc(n2)-c2cc(O)c(-c3nc(C(=O)N[C@@H](C)C(=O)NCCOCCO)cs3)nc2-c2csc(n2)[C@@H]2COC(=O)c3c4c5c(cccc5n3O)COC(=O)[C@@H](O[C@H]3C[C@](C)(O)[C@H](N(C)C)[C@H](C)O3)[C@@H](OC4)[C@H](NC(=O)c3csc1n3)c1nc(cs1)C(=O)N2: > 2900 µg/mL
